Assay: Cynomolgus monkey plasma pharmacokinetics
Conditions: male, iv, 4.37 mg/kg, Tmax, monkey P103, 4.37 mg/kg i.v. bolus
Counter-ions that a name gives are not always drawn.
Assay Endpoint: Tmax (min)
Write it as a number; the unit min goes unstated.

Asked: Query Tmax for Cc1ccc(C(=O)Nc2ccc(S(=O)(=O)O)c3cc(S(=O)(=O)O)cc(S(=O)(=O)O)c23)cc1NC(=O)c1cccc(NC(=O)Nc2cccc(C(=O)Nc3cc(C(=O)Nc4ccc(S(=O)(=O)O)c5cc(S(=O)(=O)O)cc(S(=O)(=O)O)c45)ccc3C)c2)c1 [suramin, Suramin sodium salt]
Given back: 1.8

====

Assay: Cynomolgus monkey plasma pharmacokinetics
Conditions: male, iv, 4.37 mg/kg, Cl, monkey P103, 4.37 mg/kg i.v. bolus
Structures can show the parent of a compound that is named as a salt.
Assay Endpoint: clearance (mL/h/kg)
# unit: mL/h/kg | format: bare number

Asked: State, in one line, measured clearance of Cc1ccc(C(=O)Nc2ccc(S(=O)(=O)O)c3cc(S(=O)(=O)O)cc(S(=O)(=O)O)c23)cc1NC(=O)c1cccc(NC(=O)Nc2cccc(C(=O)Nc3cc(C(=O)Nc4ccc(S(=O)(=O)O)c5cc(S(=O)(=O)O)cc(S(=O)(=O)O)c45)ccc3C)c2)c1 [suramin, Suramin sodium salt]
Given back: 1.67
